Target: InsP3Kinase-A (Homo sapiens)
Parameter measured: pKi
Keep in mind that pKi stands for -log10 of concentration in molar terms.

InsP3Kinase-A (Homo sapiens) data for Cc1nn(-c2ccc([N+](=O)[O-])cc2)c(C)c1N1C(=O)c2cc([N+](=O)[O-])cc3cc([N+](=O)[O-])cc(c23)C1=O ; its pKi: 6.36

###

Parameter inhibition at 5 µM: see the listing below.
Molecular target: InsP3Kinase-A (Homo sapiens, UniProt P23677)
Sequence (P23677 whole entry): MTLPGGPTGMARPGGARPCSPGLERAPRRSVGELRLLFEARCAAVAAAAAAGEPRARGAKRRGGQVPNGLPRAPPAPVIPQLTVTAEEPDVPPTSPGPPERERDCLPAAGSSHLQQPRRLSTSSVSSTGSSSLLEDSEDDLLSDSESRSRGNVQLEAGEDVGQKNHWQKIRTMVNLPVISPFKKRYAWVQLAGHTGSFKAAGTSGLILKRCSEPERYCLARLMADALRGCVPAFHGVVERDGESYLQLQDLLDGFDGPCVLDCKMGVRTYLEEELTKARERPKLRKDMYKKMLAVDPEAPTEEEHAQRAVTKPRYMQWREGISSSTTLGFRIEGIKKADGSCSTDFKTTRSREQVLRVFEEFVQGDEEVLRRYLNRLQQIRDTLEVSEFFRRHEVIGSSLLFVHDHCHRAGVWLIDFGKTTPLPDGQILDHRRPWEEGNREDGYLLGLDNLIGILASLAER
Test: biochemical
Parameters: gene ITPKA; full-length GST-InsP3Kinase-A
Details: ADP-Glo, 5 uM compound, normalized to positive control
Use % as the unit, but write only the number.

inhibition at 5 µM reported for this compound O=C1c2cc([N+](=O)[O-])cc3cc([N+](=O)[O-])cc(c23)C(=O)N1c1ccccc1Cl : 19.7

###

Parameter inhibition at 5 µM: see the listing below.
Target: InsP3Kinase-A (Homo sapiens, UniProt P23677)
Experiment: biochemical
Design: gene ITPKA; full-length GST-InsP3Kinase-A
Settings: ADP-Glo, 5 uM compound, normalized to positive control

[
  {
    "Molecule": "Cc1ccc(N2C(=O)c3cc([N+](=O)[O-])cc4cc([N+](=O)[O-])cc(c34)C2=O)c(C)c1 [compound 19, 19]",
    "inhibition at 5 µM": "36.2%"
  },
  {
    "Molecule": "CCN(CC)S(=O)(=O)c1ccc(N2C(=O)c3cc([N+](=O)[O-])cc4cc([N+](=O)[O-])cc(c34)C2=O)cc1 [compound 33, 33]",
    "inhibition at 5 µM": "41.6%"
  },
  {
    "Molecule": "CCOc1ccc(N2C(=O)c3cc([N+](=O)[O-])cc4cc([N+](=O)[O-])cc(c34)C2=O)cc1 [compound 27, 27]",
    "inhibition at 5 µM": "31.4%"
  }
]

Field: next molecule
InsP3Kinase-A (Homo sapiens, UniProt P23677) data for CNS(=O)(=O)c1ccc(N2C(=O)c3cc([N+](=O)[O-])cc4cc([N+](=O)[O-])cc(c34)C2=O)cc1 [compound 31, 31] ; its inhibition at 5 µM: 33.4%

All figures here come from paper PMC8292763.
